System: Rattus norvegicus
assay-procedure: Toxicity in Zucker diabetic fatty rat assessed as body weight gain at 3 mg/kg, po administered once daily for 14 days relative to control
Assay type: organism-based
measurement-conditions: in vivo, 336 h
Parameter Activity: see the listing below.
Your answer is read as %, so omit the unit and give the number.

Example entries and their recorded answers appear below.
{"compound": "Cc1cc(Cl)cnc1Oc1ccc2nc(COc3cccc(C(=O)O)c3)n(C)c2c1", "unit-string": "%", "reported": 18.5}
{"compound": "Cn1c(COc2cccc(C(=O)O)c2)nc2ccc(Oc3ccc4c(c3)CCC4)nc21", "unit-string": "%", "reported": 14}
{"compound": "Cn1c(COc2cccc(C(=O)O)c2)nc2ccc(Oc3ccc(Cl)cn3)cc21", "unit-string": "%", "reported": 0.2}
{"compound": "Cc1ccc(Oc2ccc3nc(COc4cccc(C(=O)O)c4)n(C)c3n2)cc1", "unit-string": "%", "reported": 6.8}
{"compound": "Cn1c(COc2cccc(C(=O)O)c2)nc2cnc(Oc3ccc4c(c3)CCC4)cc21", "unit-string": "%", "reported": 6.3}

Record request: Activity value, item Cc1cnc(Oc2ccc3nc(COc4cccc(C(=O)[O-])c4)n(C)c3c2)c(F)c1.[Na+]
10.8

What Activity value was documented for this compound, Cn1c(COc2cccc(C(=O)O)c2)nc2ccc(Oc3ccc4c(c3)OCC4)nc21 ?
7.1

// Activity lookup, key: CN(CCOc1ccc(CC2SC(=O)NC2=O)cc1)c1ccccn1 (stereo not given)
12.6

Quick one: Activity for Cn1c(COc2cccc(C(=O)O)c2)nc2ccc(Oc3ncc(Cl)cc3Cl)cc21 ?
10.1

Please report the recorded Activity for Cn1c(COc2cccc(C(=O)O)c2)nc2ccc(Oc3ncc(Cl)cc3F)cc21 .
13.8

----------
assay-procedure: Metabolic stability in cynomolgus monkey liver microsomes after 0.5 hrs
Assay type: ADME, Macaca fascicularis, microsome
measurement-conditions: read-out: Stability
Entries annotated with measured remaining at 0.5 h
Please respond with the number in % and leave the unit unwritten.

{"cpd-smiles": "Cc1cnc(Oc2ccc3nc(COc4cccc(C(=O)O)c4)n(C)c3c2)c(C)c1", "unit-string": "%", "remaining at 0.5 h": 80}
{"cpd-smiles": "Cn1c(COc2cccc(C(=O)O)c2)nc2ccc(Oc3ncc(Cl)cc3F)cc21", "unit-string": "%", "remaining at 0.5 h": 91}
{"cpd-smiles": "Cn1c(COc2cccc(C(=O)O)c2)nc2ccc(Oc3ccc4c(c3)OCC4)nc21", "unit-string": "%", "remaining at 0.5 h": 88}

Shifting focus to the compound that follows.
Given Cn1c(COc2cccc(C(=O)O)c2)nc2ccc(Oc3ccc(Cl)c(F)c3)cc21 , state its recorded remaining at 0.5 h.
100

----------
We begin with a simple list: items and their reported remaining at 0.5 h.
assay-procedure: Metabolic stability in human liver microsomes after 0.5 hrs
Format: ADME, microsome
measurement-conditions: read-out: Stability
Give the value in % but do not write % after it.

{"cpd-smiles": "Cc1ccc(Oc2ccc3nc(COc4cccc(C(=O)O)c4)n(C)c3n2)c(C)c1", "parameter": "remaining at 0.5 h", "reported": 63}
{"cpd-smiles": "Cn1c(COc2cccc(C(=O)O)c2)nc2ccc(Oc3ncccc3Cl)cc21", "parameter": "remaining at 0.5 h", "reported": 99}
{"cpd-smiles": "Cc1cc(Cl)cnc1Oc1ccc2nc(COc3cccc(C(=O)O)c3)n(C)c2c1", "parameter": "remaining at 0.5 h", "reported": 85}
{"cpd-smiles": "Cc1cccc(Oc2ccc3nc(COc4cccc(C(=O)O)c4)n(C)c3c2)n1", "parameter": "remaining at 0.5 h", "reported": 100}
{"cpd-smiles": "Cn1c(COc2cccc(C(=O)O)c2)nc2ccc(Oc3ncc(Cl)cc3Cl)cc21", "parameter": "remaining at 0.5 h", "reported": 100}

Any idea what remaining at 0.5 h was measured for Cc1ccc(Oc2ccc3nc(COc4cccc(C(=O)O)c4)n(C)c3c2)nc1 ?
94

Given Cc1ccc(Oc2cc3c(cn2)nc(COc2cccc(C(=O)O)c2)n3C)cc1 , state its recorded remaining at 0.5 h.
80

Please report the recorded remaining at 0.5 h for Cl.Cl.Cn1c(COc2cccc(C(=O)O)c2)nc2ccc(Oc3ccccc3)nc21 .
100

Which value of remaining at 0.5 h has been reported for Cc1cnc(Oc2ccc3nc(COc4cccc(C(=O)O)c4)n(C)c3c2)c(F)c1 in the records?
100

Requested field: remaining at 0.5 h. Item: Cc1ccc(Oc2ccc3nc(COc4cccc(C(=O)O)c4)n(C)c3c2)nc1C
100

Would you mind telling me what remaining at 0.5 h value was observed for Cn1c(COc2cccc(C(=O)O)c2)nc2ccc(Oc3ncc(Cl)cc3F)cc21 ?
90

Could you tell me which remaining at 0.5 h is on file for Cc1cc(F)cnc1Oc1ccc2nc(COc3cccc(C(=O)O)c3)n(C)c2c1 ?
93

----------
assay-procedure: in vivo
measurement-conditions: F344/DuCrlCrlj, rat, po, 50 mg/kg
Description: Tmax in F344/DuCrlCrlj rat at 50 mg/kg, po via gavage measured on day 28 post dose
parameter: Tmax (h)
Supply the numeric figure in h, leaving out any unit text.

Data request, read-out Tmax, for CN(CCOc1ccc(CC2SC(=O)NC2=O)cc1)c1ccccn1 (stereo unspecified)
1

----------
// reported Cmax per item
assay-procedure: Cmax in cynomolgus monkey at 3 mg/kg, po by LC-MS/MS
Assay type: ADME, organism-based, Macaca fascicularis
Design: dose 3 mg/kg, route oral
measurement-conditions: in vivo
Just the number in ng/mL, nothing appended.

{"cpd-smiles": "Cc1cnc(Oc2ccc3nc(COc4cccc(C(=O)O)c4)n(C)c3c2)c(F)c1", "reported": 100}

For Cc1cnc(Oc2ccc3nc(COc4cccc(C(=O)O)c4)n(C)c3c2)c(C)c1 , what is its reported Cmax?
2250

Query: Cmax; subject: Cn1c(COc2cccc(C(=O)O)c2)nc2ccc(Oc3ccc4c(c3)OCC4)nc21
460

Please report the recorded Cmax for Cn1c(COc2cccc(C(=O)O)c2)nc2ccc(Oc3ccc(Cl)c(F)c3)cc21 .
4440

Reported Cmax for Cn1c(COc2cccc(C(=O)O)c2)nc2ccc(Oc3ncc(Cl)cc3F)cc21 : what is it?
1190

----------
target-or-system: Peroxisome proliferator-activated receptor gamma (Homo sapiens, UniProt P37231)
Sequence (P37231 whole entry, the tested form may be a part): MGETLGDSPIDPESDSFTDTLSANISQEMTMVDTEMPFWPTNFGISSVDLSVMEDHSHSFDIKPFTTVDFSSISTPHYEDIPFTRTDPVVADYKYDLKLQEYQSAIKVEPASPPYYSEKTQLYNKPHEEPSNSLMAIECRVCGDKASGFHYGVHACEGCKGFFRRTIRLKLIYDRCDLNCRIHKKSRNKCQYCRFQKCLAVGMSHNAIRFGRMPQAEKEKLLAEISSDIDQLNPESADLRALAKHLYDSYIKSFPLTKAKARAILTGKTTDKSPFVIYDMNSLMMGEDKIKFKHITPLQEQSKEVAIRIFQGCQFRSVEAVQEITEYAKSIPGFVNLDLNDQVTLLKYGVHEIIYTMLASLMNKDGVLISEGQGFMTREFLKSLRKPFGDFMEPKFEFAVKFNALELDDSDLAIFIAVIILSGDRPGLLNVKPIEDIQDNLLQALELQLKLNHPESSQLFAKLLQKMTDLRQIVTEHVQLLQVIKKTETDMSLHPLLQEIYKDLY
assay-procedure: Agonist activity at recombinant human GAL4-DBD fused PPARgamma LBD expressed in COS7 cells after 24 hrs by luciferase reporter gene assay
parameter: EC50 (nM)
A number alone suffices; assume nM.

{"cpd-smiles": "Cc1ccc(Oc2ccc3nc(COc4cccc(C(=O)O)c4)n(C)c3n2)cc1F", "target-or-system": "Peroxisome proliferator-activated receptor gamma (Homo sapiens, UniProt P37231)", "EC50 / nM": 50}
{"cpd-smiles": "Cc1ccc(Oc2cc3c(cn2)nc(COc2cccc(C(=O)O)c2)n3C)cc1", "target-or-system": "Peroxisome proliferator-activated receptor gamma (Homo sapiens, UniProt P37231)", "EC50 / nM": 746}
{"cpd-smiles": "Cn1c(COc2cccc(C(=O)O)c2)nc2ccc(Oc3ncccc3Cl)cc21", "target-or-system": "Peroxisome proliferator-activated receptor gamma (Homo sapiens, UniProt P37231)", "EC50 / nM": 200}
{"cpd-smiles": "Cc1ccc(Oc2ccc3nc(COc4cccc(C(=O)O)c4)n(C)c3n2)c(C)c1", "target-or-system": "Peroxisome proliferator-activated receptor gamma (Homo sapiens, UniProt P37231)", "EC50 / nM": 101}
{"cpd-smiles": "COC(=O)c1cccc(OCc2nc3ccc(Oc4ccccc4)nc3n2C)c1", "target-or-system": "Peroxisome proliferator-activated receptor gamma (Homo sapiens, UniProt P37231)", "EC50 / nM": 12400}
{"cpd-smiles": "Cn1c(COc2cccc(C(=O)O)c2)nc2ccc(Oc3ccc4c(c3)OCC4)nc21", "target-or-system": "Peroxisome proliferator-activated receptor gamma (Homo sapiens, UniProt P37231)", "EC50 / nM": 94}

Read the next record carefully.
Look up EC50: Cn1c(COc2cccc(C(=O)O)c2)nc2ccc(Oc3ccc4c(c3)CCC4)nc21
25

----------
The entries below come with measured Vd values attached.
assay-procedure: Volume of distribution at steady state in cynomolgus monkey at 1 mg/kg, iv by LC-MS/MS
Format: ADME, organism-based, Macaca fascicularis
measurement-conditions: in vivo, read-out: Vdss
Report only the number, with the unit L/kg understood.

The examples below pair each entry with its known result.
{"cpd-smiles": "Cn1c(COc2cccc(C(=O)O)c2)nc2ccc(Oc3ncc(Cl)cc3F)cc21", "reported": 0.5}
{"cpd-smiles": "Cc1cnc(Oc2ccc3nc(COc4cccc(C(=O)O)c4)n(C)c3c2)c(C)c1", "reported": 0.36}
{"cpd-smiles": "Cn1c(COc2cccc(C(=O)O)c2)nc2ccc(Oc3ccc4c(c3)OCC4)nc21", "reported": 1.97}
{"cpd-smiles": "Cc1cnc(Oc2ccc3nc(COc4cccc(C(=O)O)c4)n(C)c3c2)c(F)c1", "reported": 0.88}

Next:
Fill in: Vd of Cn1c(COc2cccc(C(=O)O)c2)nc2ccc(Oc3ccc(Cl)c(F)c3)cc21 is ___
0.2
